Values from ChEMBL document CHEMBL1146917

Recorded solubility for the following compounds
# Test Name: Solubility of the compound
# Format: physicochemical
Kindly answer with a numeric value in µM, unit omitted.

See these solved cases before continuing.
O=C(Cc1ccc(OC(F)(F)F)cc1)NCc1ccc(-c2nc(C(=O)N3CCCCC3)co2)cc1 ... 44
O=C(Cc1ccccc1)NCc1ccc(-c2nc(C(=O)N3CCCCC3)co2)cc1 ... 47

Noted for O=C(Cc1cccs1)NCc1ccc(-c2nc(C(=O)N3CCCCC3)co2)cc1 : its solubility reads 29
